# credit: the supplement of paper PMC10567573

B1: ZBED2 (parent)
chain: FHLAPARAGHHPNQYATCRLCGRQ

Variants of: B1
Test Protocol: protein stability index of a GFP-peptide fusion (GPS, HEK-293T) (PSI 1-6); higher = more stable;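 further: lentivirally expressed fusions sorted by FACS into six bins by GFP to DsRed ratio, PSI derived from sequencing read proportions per bin multiplied by bin number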
Run Parameters: c terminus: a fixed tail appended
Kindly return Criterion met if reported protein stability index is no lower than 2; return Criterion not met if it is lower.

Mutation Label: R19Y
Answer Label: Criterion not met
//
Mutation Label: C21W
Answer Label: Criterion met
//
Mutation Label: F1Q
Answer Label: Criterion met
//
Mutation Label: A16E
Answer Label: Criterion not met
//
Mutation Label: G22A
Answer Label: Criterion not met
//
Mutation Label: R19V
Answer Label: Criterion met
//
Mutation Label: A4G
Answer Label: Criterion met
//
Mutation Label: A6C
Answer Label: Criterion met
//
Mutation Label: Q14E
Answer Label: Criterion met
//
Mutation Label: L3E
Answer Label: Criterion met
